Bridge positions count the residues as written; N and C are the ends. Square brackets hold non-standard residues; d marks the D form. Peptide text beside a SMILES is read from it. Phe(4-Cl) = N[C@@H](Cc1ccc(Cl)cc1)C(=O)O; 2Nal = N[C@@H](Cc1ccc2ccccc2c1)C(=O)O; 3Pal = N[C@@H](Cc1cccnc1)C(=O)O; Tle = CC(C)(C)[C@H](N)C(=O)O
I'd appreciate it if you could supply pKi values for the items below.
Keep in mind that pKi stands for -log10 of concentration in molar terms.

Q. For Somatostatin receptor type 5 (Homo sapiens, UniProt P35346), give the measured pKi of the entry `CC(C)[C@@H]1NC(=O)[C@H](CCCCN)NC(=O)[C@@H](Cc2c[nH]c3ccccc23)NC(=O)[C@H](Cc2cccnc2)NC(=O)[C@H](NC(=O)[C@H](N)Cc2ccc(F)cc2)CSSC[C@@H](C(=O)N[C@H](Cc2ccc(F)cc2)C(N)=O)NC1=O`
A. 6.16

Q. For Somatostatin receptor type 5 (Homo sapiens, UniProt P35346), give the measured pKi of the entry CC(C)(C)[C@@H]1NC(=O)[C@H](CCCCN)NC(=O)[C@@H](Cc2c[nH]c3ccccc23)NC(=O)[C@H](Cc2cccnc2)NC(=O)[C@H](NC(=O)[C@@H](N)Cc2ccc(Cl)cc2)CSSC[C@@H](C(=O)N[C@@H](Cc2ccc3ccccc3c2)C(N)=O)NC1=O (H-[Phe(4-Cl)][dC][3Pal][dW]K[Tle]C[2Nal]-NH2; disulfide 2-7)
A. 6.28

Q. For Somatostatin receptor type 5 (Homo sapiens, UniProt P35346), give the measured pKi of the entry CC(C)(C)[C@@H]1NC(=O)[C@H](CCCCN)NC(=O)[C@@H](Cc2c[nH]c3ccccc23)NC(=O)[C@H](Cc2cccnc2)NC(=O)[C@H](NC(=O)[C@@H](N)Cc2c[nH]c3ccccc23)CSSC[C@@H](C(=O)N[C@@H](Cc2ccc3ccccc3c2)C(N)=O)NC1=O (H-W[dC][3Pal][dW]K[Tle]C[2Nal]-NH2; disulfide 2-7)
A. 5.65

Q. For Somatostatin receptor type 5 (Homo sapiens, UniProt P35346), give the measured pKi of the entry CC(C)[C@@H]1NC(=O)[C@H](CCCCN)NC(=O)[C@@H](Cc2c[nH]c3ccccc23)NC(=O)[C@H](Cc2ccc(O)c(I)c2)NC(=O)C(NC(=O)[C@@H](N)Cc2ccc3ccccc3c2)CSSCC(C(=O)N[C@@H](Cc2ccc3ccccc3c2)C(N)=O)NC1=O (stereo in doubt)
A. 6.33

* * *

I'd appreciate it if you could supply Ki values for the items below.
Bridge positions count the residues as written; N and C are the ends. Square brackets hold non-standard residues; d marks the D form. Peptide text beside a SMILES is read from it. Phe(4-Cl) = N[C@@H](Cc1ccc(Cl)cc1)C(=O)O; Phe(4-F) = N[C@@H](Cc1ccc(F)cc1)C(=O)O; 2Nal = N[C@@H](Cc1ccc2ccccc2c1)C(=O)O; 3Pal = N[C@@H](Cc1cccnc1)C(=O)O; Tle = CC(C)(C)[C@H](N)C(=O)O
Give the value, in units of nM, as a plain number.

Q. For UniProtKB P32745, give the measured Ki of the entry `CC(C)C[C@@H]1NC(=O)[C@H](CCCCN)NC(=O)[C@@H](Cc2c[nH]c3ccccc23)NC(=O)[C@H](Cc2cccnc2)NC(=O)[C@H](NC(=O)[C@@H](N)Cc2ccc3ccccc3c2)CSSC[C@@H](C(=O)N[C@@H](Cc2ccc3ccccc3c2)C(N)=O)NC1=O`
Sequence (P32745 whole entry): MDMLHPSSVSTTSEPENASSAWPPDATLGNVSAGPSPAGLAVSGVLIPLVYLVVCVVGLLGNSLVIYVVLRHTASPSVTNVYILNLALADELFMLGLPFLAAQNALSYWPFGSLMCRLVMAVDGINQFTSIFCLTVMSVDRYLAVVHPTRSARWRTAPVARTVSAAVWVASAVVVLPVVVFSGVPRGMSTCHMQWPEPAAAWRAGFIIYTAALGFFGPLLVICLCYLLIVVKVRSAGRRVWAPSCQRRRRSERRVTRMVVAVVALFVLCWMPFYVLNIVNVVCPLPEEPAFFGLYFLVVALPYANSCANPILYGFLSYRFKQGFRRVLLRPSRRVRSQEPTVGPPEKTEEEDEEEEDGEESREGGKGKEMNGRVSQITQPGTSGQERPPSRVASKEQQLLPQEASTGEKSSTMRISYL
A. 243

Q. For UniProtKB P32745, give the measured Ki of the entry CC(C)(C)[C@@H]1NC(=O)[C@H](CCCCN)NC(=O)[C@@H](Cc2c[nH]c3ccccc23)NC(=O)[C@H](Cc2cccnc2)NC(=O)[C@H](NC(=O)[C@@H](N)Cc2ccc(Cl)cc2)CSSC[C@@H](C(=O)N[C@@H](Cc2ccc3ccccc3c2)C(N)=O)NC1=O (H-[Phe(4-Cl)][dC][3Pal][dW]K[Tle]C[2Nal]-NH2; disulfide 2-7)
A. 100

Q. For UniProtKB P32745, give the measured Ki of the entry CC[C@H](C)[C@@H]1NC(=O)[C@H](CCCCN)NC(=O)[C@@H](Cc2c[nH]c3ccccc23)NC(=O)[C@H](Cc2cccnc2)NC(=O)[C@H](NC(=O)[C@@H](N)Cc2ccc3ccccc3c2)CSSC[C@@H](C(=O)N[C@@H](Cc2ccc3ccccc3c2)C(N)=O)NC1=O (H-[2Nal][dC][3Pal][dW]KIC[2Nal]-NH2; disulfide 2-7)
A. 152

Q. For UniProtKB P32745, give the measured Ki of the entry CC(C)(C)[C@@H]1NC(=O)[C@H](CCCCN)NC(=O)[C@@H](Cc2c[nH]c3ccccc23)NC(=O)[C@H](Cc2cccnc2)NC(=O)[C@H](NC(=O)[C@@H](N)Cc2ccc(F)cc2)CSSC[C@@H](C(=O)N[C@@H](Cc2ccc3ccccc3c2)C(N)=O)NC1=O (H-[Phe(4-F)][dC][3Pal][dW]K[Tle]C[2Nal]-NH2; disulfide 2-7)
A. 231

Data provenance: ChEMBL document CHEMBL1132220
